Provenance of the data: BindingDB's records for doi:10.1021/jm980023c

Please respond with reported IC50 for every item in the list.
Molecular target: Beta-lactamase TEM-3 (Escherichia coli)
Assay: Inhibitory activity against Escherichia coli TEM-3 Beta-lactamase

Answered cases to consult:
Compound	IC50
NC(=O)c1ccc[n+](CC(=O)N2CC[C@@H]3[C@H]2C(=O)N3S(=O)(=O)[O-])c1	0.7 µM
NC(=O)c1cccc(NC(=O)N2CC[C@@H]3[C@H]2C(=O)N3S(=O)(=O)O)c1	4 µM
O=C(OCc1ccccc1)N1C[C@H](F)[C@@H]2[C@H]1C(=O)N2S(=O)(=O)O	0.511 µM
Cn1ccnc1SCC(=O)N1CC[C@@H]2[C@H]1C(=O)N2S(=O)(=O)O	> 100 µM
O=C1NCC[C@@H]1NC(=O)N1CC[C@@H]2[C@H]1C(=O)N2S(=O)(=O)O	> 100 µM

Answer for every listed entry: what is its IC50? The entries follow.
1. NC(C(=O)N1CC[C@@H]2[C@H]1C(=O)N2S(=O)(=O)O)c1ccc(O)cc1 (some centres undefined)
2. Cn1nnnc1SCC(=O)N1CC[C@@H]2[C@H]1C(=O)N2S(=O)(=O)O
3. O=C(OCc1ccccc1)N1CC[C@@H]2[C@H]1C(=O)N2S(=O)(=O)O
4. CC(C)(C)OC(=O)N1CC[C@@H]2[C@H]1C(=O)N2S(=O)(=O)O

> 100 µM
> 100 µM
> 100 µM
> 100 µM
